pIC50: −log10 of the molar value.
Target or system UniProtKB P04629: recorded pIC50 listed per item.
Sequence (P04629 33-796): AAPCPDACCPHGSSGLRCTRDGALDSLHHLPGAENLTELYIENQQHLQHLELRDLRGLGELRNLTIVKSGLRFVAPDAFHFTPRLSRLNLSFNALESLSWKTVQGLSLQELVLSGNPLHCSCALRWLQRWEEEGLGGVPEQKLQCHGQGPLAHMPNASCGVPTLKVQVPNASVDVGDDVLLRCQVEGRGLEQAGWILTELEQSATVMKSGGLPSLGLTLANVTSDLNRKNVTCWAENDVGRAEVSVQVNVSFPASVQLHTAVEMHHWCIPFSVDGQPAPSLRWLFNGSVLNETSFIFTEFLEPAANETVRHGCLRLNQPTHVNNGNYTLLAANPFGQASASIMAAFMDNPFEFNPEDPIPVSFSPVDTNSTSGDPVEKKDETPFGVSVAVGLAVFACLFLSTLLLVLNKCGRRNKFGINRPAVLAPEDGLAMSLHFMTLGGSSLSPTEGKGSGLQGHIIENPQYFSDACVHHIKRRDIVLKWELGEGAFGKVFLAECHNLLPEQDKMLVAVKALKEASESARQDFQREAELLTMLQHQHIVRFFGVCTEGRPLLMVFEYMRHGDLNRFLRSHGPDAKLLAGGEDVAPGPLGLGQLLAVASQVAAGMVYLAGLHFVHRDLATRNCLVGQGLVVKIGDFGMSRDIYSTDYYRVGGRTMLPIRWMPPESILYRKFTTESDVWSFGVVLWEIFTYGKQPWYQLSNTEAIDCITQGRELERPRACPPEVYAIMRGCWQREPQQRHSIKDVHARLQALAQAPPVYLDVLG

INPUT: Fill blank: measured pIC50 of the compound Fc1ccc2c(c1)[C@H]1CCCN1c1ccc3ncc(n3n1)-c1cc(ccn1)CO2 is ____.
OUTPUT: > 8.52

INPUT: For the compound shown here, CC1Nc2ccc3ncc(n3n2)-c2cc(ccn2)COc2ccccc21 (stereo not shown) , give the reported pIC50.
OUTPUT: 8.23

INPUT: So what does the record say about pIC50 for c1ccc2c(c1)CNc1ccc3ncc(n3n1)-c1cc(ccn1)CO2 ?
OUTPUT: 8.56

INPUT: For the compound C[C@@H]1Nc2ccc3ncc(n3n2)-c2cc(ccn2)COc2ncccc21 , what pIC50 is on record?
OUTPUT: 8.21

INPUT: Using the record for C[C@H]1Nc2ccc3ncc(n3n2)-c2cc(ncn2)COc2ccccc21 , report its pIC50.
OUTPUT: > 8.52

INPUT: // pIC50 lookup, key: C[C@@H]1Cc2cc(ncn2)-c2cnc3ccc(nn23)N2CCC[C@@H]2c2cc(F)ccc2O1
OUTPUT: > 8.52

INPUT: Bench note: what pIC50 did CC1Nc2ccc3ncc(n3n2)-c2cncc(c2)COc2ccc(F)cc21 (stereo not shown) show?
OUTPUT: > 8.52

INPUT: Which measured pIC50 value corresponds to C[C@H]1Cc2ccnc(n2)-c2cnc3ccc(nn23)N2CCC[C@@H]2c2cc(F)cnc2O1 ?
OUTPUT: > 8.52

INPUT: Would you kindly share the measured pIC50 for C[C@@H]1Nc2ccc3ncc(n3n2)-c2cncc(c2)COc2ccc(F)cc21 ?
OUTPUT: 8.32

INPUT: Given C[C@H]1Nc2ccc3ncc(n3n2)-c2cc(ccn2)COc2c(F)cc(F)cc21 , state its recorded pIC50.
OUTPUT: > 8.52

INPUT: pIC50 for Fc1cnc2c(c1)[C@H]1C[C@H](F)CN1c1ccc3ncc(n3n1)-c1nccc(n1)CCO2 ?
OUTPUT: > 8.52

INPUT: I have this compound here, C[C@@H]1Nc2ccc3ncc(n3n2)-c2cc(ncn2)COc2ccccc21 , and I need its recorded pIC50.
OUTPUT: 8.43

INPUT: Param item = C[C@H]1Nc2ccc3ncc(n3n2)-c2cc(ccn2)CCOc2ccccc21 ; retrieve measured pIC50.
OUTPUT: > 8.52
